Each recorded value in this set is attributed to patent US20220332816A1.

Molecular target: T1, Recombinant human TIGIT (human, UniProt Q495A1 22-141, limits assumed)
T1 construct: also called T cell immunoreceptor with Ig and ITIM domains
T1 sequence: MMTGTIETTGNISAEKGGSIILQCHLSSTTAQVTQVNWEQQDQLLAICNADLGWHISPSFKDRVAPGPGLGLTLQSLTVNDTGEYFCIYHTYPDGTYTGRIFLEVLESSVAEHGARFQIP
Experiment: ELISA, recombinant human TIGIT coated on plate, serially diluted antibody
Provide the reported EC50 of each item.
Numbers only, in nM.

{"binder": "SCT-Ga255 (antibody, V domains shown, Murine variable domains) VH: EVKLVESGGGLVKPGGSLKLSCAASGFAFSSFDMSWVRQTPEKRLEWVAVISSGGSYTFYPDSVKGRFTISRDNARNTLYLQMSSLRSEDTALYFCTRQDYRYPYIMDYWGQGTSVTVSS VL: DIQMNQSPSSLSASLGDTITITCHASQNINVWLSWYQQKPGNIPKLLIYKASNLHTGVPSRFSGSGSGAGFTLTISSLQPEDIATYYCQQGQSYPWTFGGGTKLEIK", "measured-parameter": "EC50", "unit-descriptor": "nM", "recorded-result": 0.96}

Batch: EC50 for all items listed.
1. SCT-Ga461 (antibody, V domains shown) VH: EVQLVESGGGLVQPGGSLRLSCAASGFTFSSYTMSWVRQAPGKGLEWVATISSGGSYTYYPDSVKGRFTISRDNAKNTLYLQMNSLRAEDTAVYYCTRWLLSLYAMDYWGQGTLVTVSS VL: AIQMTQSPSSLSASVGDRVTITCQASQNINVWLSWYQQKPGKAPKLLIYKASTLASGVPSRFSGSGSGTDFTLTISSLQPDDFATYYCQQGQTYPFTFGGGTKVEIK
2. SCT-Ga249 (antibody, V domains shown, Murine variable domains) VH: QVQLQQSGGELMKPGASVKISCKATGYTFSNYWIEWVKQRPGHGLEWIGEILPGSGSSYYNEKFKGRATFTADKSSNTAYMQLSSLTSEDSAVYYCARQKYGNFYYFDFWGQGTTLTVSS VL: AIQMTQTTSSLSASLGDRVTISCSASQGIGNYLNWYQQKPDGTVKLLIYYTSSLHSGVPSRFSGSGSGTDYSLTISDLEPEDIATYYCHQYSKLPYTFGGGTKLEIK
3. SCT-Ga485 (antibody, V domains shown) VH: QVQLVQSGAEVKKPGASVKVSCKASGYAFTNYLIEWVKQAPGQGLEWIGVINPGSGGSKYNEKFKGRATITADKSTSTAYMELSSLRSEDTAVYFCARTGVYGNFLIFDYWGQGTTVTVSS VL: DIVMTQSPDSLAVSLGERATINCKSSQSLLNSGIQKNYLAWYQQKPGQPPKLLIYGASTRESGVPDRFSGSGSGTDFTLTISSLQAEDVAVYYCQNDHRYPFTFGGGTKLEIK

Output line:
4.55
1.22
0.79
